Test: Intrinsic clearance in rat hepatocytes assessed per 1 x 10^6 cells
attribute_measured: hepatocyte CLint

1. CS(=O)(=O)c1ccc(-c2cc(C(F)(F)F)ccc2OCC(=O)O)cc1 ... < 3 µL/min/1e6 cells
2. Cc1cc(N(C)S(C)(=O)=O)ccc1-c1cc(C(F)(F)F)ccc1OCC(=O)O ... < 3 µL/min/1e6 cells

--- query ---
Just so you know, measured hepatocyte CLint for N#Cc1cccc(-c2cc(C(F)(F)F)ccc2OCC(=O)O)c1 came out at < 3 µL/min/1e6 cells

###

Assay: Intrinsic clearance in rat hepatocytes assessed per 1 x 10^6 cells
attribute_measured: hepatocyte CLint

1) N#Cc1ccc(OCC(=O)O)c(-c2ccccc2)c1 ... < 3 µL/min/1e6 cells

For each listed entry, give its hepatocyte CLint.
1. CCS(=O)(=O)c1cccc(-c2cc(C(F)(F)F)ccc2OCC(=O)O)c1
2. O=C(O)COc1ccc(C(F)(F)F)cc1-c1ccc(Cl)cc1
3. CCS(=O)(=O)c1ccc(-c2cc(C(F)(F)F)ccc2OCC(=O)O)c(Cl)c1
4. CCS(=O)(=O)c1ccc(-c2cc(Cl)ccc2OCC(=O)O)cc1
5. Cc1ccc(C#N)cc1-c1cc(C(F)(F)F)ccc1OCC(=O)O
6. N#Cc1ccc(F)c(-c2cc(C(F)(F)F)ccc2OCC(=O)O)c1
7. C[C@@H](Oc1ccc(C(F)(F)F)cc1-c1cccc(C#N)c1)C(=O)O
8. CN(c1ccc(-c2cc(C(F)(F)F)ccc2OCC(=O)O)cc1)S(C)(=O)=O

RESULT:
1: < 3 µL/min/1e6 cells; 2: < 3 µL/min/1e6 cells; 3: < 5 µL/min/1e6 cells; 4: < 3 µL/min/1e6 cells; 5: < 3 µL/min/1e6 cells; 6: < 3 µL/min/1e6 cells; 7: < 5 µL/min/1e6 cells; 8: < 3 µL/min/1e6 cells
